Taken from PubChem BioAssay (NCATS).

Test: qHTS drug screen for cell cycle checkpoint inhibitors in PARPi-resistant BRCA-mutant ovarian cancer cell lines. (AID 1963452)
Conditions: PEO1/OlaR viability, CellTiter-Glo luminescence, 96 h; measured here: PEO4 Z-AUC; stronger effect = lower value
Give measured Z-AUC for each item. Keep answers brief.
Number only, no unit.

Z-AUC lookup needed for `CC1(C)O[C@@H]2C[C@H]3[C@@H]4C[C@H](F)C5=CC(=O)C=C[C@]5(C)[C@H]4[C@@H](O)C[C@]3(C)[C@]2(C(=O)CO)O1` , thanks.
0.487

Could you share which Z-AUC value was measured for `Cc1cc2c(cc1CC(=O)c1sccc1S(=O)(=O)Nc1onc(C)c1Cl)OCO2` ?
0.661

Record request: Z-AUC value, item `COc1cc2c(cc1O)CC[C@@H]1[C@@H]2CC[C@]2(C)[C@@H](O)CC[C@@H]12`
-0.454

What value of Z-AUC has been recorded for this entry: `O=c1[nH]c(=O)n([C@H]2C[C@H](O)[C@@H](CO)O2)cc1C(F)(F)F`
-0.403
